tested on: normal NK cells expanded with K562-aAPC; assay: percent inhibition of viability; higher = more inhibition; settings: 72 h; IL-2 2.5 ng/mL; 1000 nM
observedProperty: percent inhibition of viability (%)
Answers are plain numbers, in %.

Solved entries:
| compound | percent inhibition of viability [%] |
| --- | --- |
| Clc1ccccc1C(c1ccccc1)(c1ccccc1)n1cccn1 [TRAM-34] (max concentration tested 1000 nM) | 12.7 |
| Cc1cc(Nc2cc(N3CCN(C)CC3)nc(/C=C/c3ccccc3)n2)n[nH]1 [ENMD-2076] (max concentration tested 10000 nM) | 60.5 |

Data request: For the compound shown here, COc1cc2c(cc1-c1c(C)noc1C)ncc1[nH]c(=O)n([C@H](C)c3ccccn3)c12 [I-BET151] (max concentration tested 10000 nM) , give the reported percent inhibition of viability.
Data returned: 17.1

###

tested on: YT (IL-2 2.5 ng/mL); experiment: percent inhibition of viability; higher = more inhibition; conditions: 72 h; 10 nM
Field: percent inhibition of viability. Provide a value for each of the compounds that follow.
Numbers only, in %.

The following compounds have reported results that may help.
| compound | percent inhibition of viability [%] |
| --- | --- |
| CC(C)C[C@H](NC(=O)[C@H](CCc1ccccc1)NC(=O)CN1CCOCC1)C(=O)N[C@@H](Cc1ccccc1)C(=O)N[C@@H](CC(C)C)C(=O)[C@@]1(C)CO1 [Carfilzomib] (max concentration tested 1000 nM) | 100 |
| O=C(Nc1c[nH]nc1-c1nc2ccc(CN3CCOCC3)cc2[nH]1)NC1CC1 [AT9283] (max concentration tested 1000 nM) | 3.44 |
| CC(C)(C)Cn1c(N)nc2ccc(-c3[nH]c(C(C)(C)C)nc3-c3ccc(F)cc3)nc21 [Ralimetinib] (max concentration tested 10000 nM) | 1.91 |
| Nc1cccc2c1C(=O)N(C1CCC(=O)NC1=O)C2=O (configuration not stated) [Pomalidomide] (max concentration tested 10000 nM) | -2.96 |
| CCC1=C[C@@H]2CN(C1)Cc1c([nH]c3ccccc13)[C@@](C(=O)OC)(c1cc3c(cc1OC)N(C)[C@H]1[C@@](O)(C(=O)OC)[C@H](OC(C)=O)[C@]4(CC)C=CCN5CC[C@]31[C@@H]54)C2 [Vinorelbine] (max concentration tested 10000 nM) | 65.8 |
| O=C(c1cc(Cc2n[nH]c(=O)c3ccccc23)ccc1F)N1CCN(C(=O)C2CC2)CC1 [Olaparib] (max concentration tested 10000 nM) | 1.35 |

Now, please, on to the next compound.
Data request: Param item = O[C@H]1CC[C@H](Nc2ncc3nc(Nc4c(F)cc(F)cc4F)n([C@H]4CCOC4)c3n2)CC1 [Tanzisertib] (max concentration tested 10000 nM) ; retrieve measured percent inhibition of viability.
Data returned: 0.43

###

test system: IMC-1 (IL-2 20 ng/mL); experiment: percent inhibition of viability; higher = more inhibition; conditions: 72 h; 100 nM
Would you mind telling me the reported percent inhibition of viability of each entry?

// worked examples, percent inhibition of viability included
| molecule | percent inhibition of viability |
| --- | --- |
| CC[C@H](CO)Nc1nc(NCc2ccccc2)c2ncn(C(C)C)c2n1 [Seliciclib] (max concentration tested 10000 nM) | -1.13% |
| COc1ccc(-c2ccc3c(N4CCOC[C@@H]4C)nc(N4CCOC[C@@H]4C)nc3n2)cc1CO [AZD8055] (max concentration tested 10000 nM) | -36.4% |

Data request: Entry under review: CC(=O)Nc1ccc(C(=O)Nc2ccccc2N)cc1 [Tacedinaline] (max concentration tested 1000 nM) . Reported percent inhibition of viability?
Data returned: 1.46%
